All values here come from ChEMBL document CHEMBL3593164.

- Test system: Mycobacterium tuberculosis
- measurementProtocol: Inhibition of multidrug resistance efflux pump in Mycobacterium tuberculosis H37Rv assessed as isoniazid MIC at 64 ug/ml after 7 days by two-dimensional broth microdilution checkerboard assay
- conditionContext: 168 h
propertyMeasured: MIC

compound="CN1CCCCC1CCn1ccc2ccc(Br)cc21 (racemic)" valueobserved="50 ng/mL"
compound="COc1ccc(N(CCC2CCCCN2C)C(C)C)cc1OC (racemic)" valueobserved="100 ng/mL"
compound="CN1CCCCC1CCn1c2ccccc2c2ccccc21 (racemic)" valueobserved="< 0.078 ng/mL"
compound="CN1CCCCC1CCn1cnc2ccccc21 (racemic)" valueobserved="100 ng/mL"

###

- System: Mycobacterium tuberculosis
- measurementProtocol: Inhibition of multidrug resistance efflux pump in Mycobacterium tuberculosis H37Rv assessed as amikacin MIC at 64 ug/ml after 7 days by two-dimensional broth microdilution checkerboard assay
- conditionContext: 168 h
compounds and their reported MIC
propertyMeasured: MIC

compound="CN1CCCCC1CCn1cnc2ccccc21 (racemic)" system="Mycobacterium tuberculosis" propertymeasured=MIC valueobserved="1 µg/mL"
compound="CN1CCCCC1CCn1c2ccccc2c2ccccc21 (racemic)" system="Mycobacterium tuberculosis" propertymeasured=MIC valueobserved="< 0.0156 µg/mL"
compound="CN1CCCCC1CCn1ccc2ccc(Br)cc21 (racemic)" system="Mycobacterium tuberculosis" propertymeasured=MIC valueobserved="> 0.0156 µg/mL"
compound="COc1ccc(N(CCC2CCCCN2C)C(C)C)cc1OC (racemic)" system="Mycobacterium tuberculosis" propertymeasured=MIC valueobserved="2 µg/mL"

###

- System: Mycobacterium tuberculosis
- measurementProtocol: Inhibition of multidrug resistance efflux pump in Mycobacterium tuberculosis H37Rv assessed as ofloxacin MIC at 8 ug/ml after 7 days by two-dimensional broth microdilution checkerboard assay
- conditionContext: 168 h
propertyMeasured: MIC (µg/mL)

compound="COc1ccc(N(CCC2CCCCN2C)C(C)C)cc1OC (racemic)" system="Mycobacterium tuberculosis" propertymeasured=MIC unitssymbol=µg/mL valueobserved=2
compound="CN1CCCCC1CCn1c2ccccc2c2ccccc21 (racemic)" system="Mycobacterium tuberculosis" propertymeasured=MIC unitssymbol=µg/mL valueobserved=1
compound="CN1CCCCC1CCn1cnc2ccccc21 (racemic)" system="Mycobacterium tuberculosis" propertymeasured=MIC unitssymbol=µg/mL valueobserved=1
compound="CN1CCCCC1CCn1ccc2ccc(Br)cc21 (racemic)" system="Mycobacterium tuberculosis" propertymeasured=MIC unitssymbol=µg/mL valueobserved=1
